// provenance: PubChem BioAssay AID1963958

- System: MDA-MB-231 multicell spheroids, viability
- Method Notes: Anticancer human tumor MDA-MB-231 cell line growth inhibition [PI3K];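 also: spheroids exposed to agents for seven days before reading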
- Conditions Used: second compound 0.316 µM; first compound 1 µM; stronger effect = lower value
Labelling field: enter criterion met if recorded viability, T/C is less than 50%. Enter criterion not met if it equals or exceeds that cut-off.

Request: Determine whether this compound shows viability, T/C lower than 50% (ties excluded): CCN1CCN(Cc2ccc(Nc3ncc(F)c(-c4cc(F)c5nc(C)n(C(C)C)c5c4)n3)nc2)CC1 + CC(Nc1ncnc2nc[nH]c12)c1cc2cccc(Cl)c2c(=O)n1-c1ccccc1
Response: criterion not met

Request: Same question for CC(Cn1ccc(-c2ccc(C#N)c(Cl)c2)n1)NC(=O)c1cc(C(C)O)[nH]n1 (stereo not given) + CC(Nc1ncnc2nc[nH]c12)c1cc2cccc(Cl)c2c(=O)n1-c1ccccc1 please.
Response: criterion not met

Request: Same question for C#Cc1c(F)ccc2cc(O)cc(-c3ncc4c(N5CC6CCC(C5)N6)nc(OCC56CCCN5CC(F)C6)nc4c3F)c12 (stereo not given) + COc1c(OCCCN2CCOCC2)ccc2c3n(c(=NC(=O)c4cnc(N)nc4)nc12)CCN3 please.
Response: criterion met

Request: Same question for CC1(C)CCC(Nc2ncc(C(F)(F)F)c(-c3c[nH]c4c(P(C)(C)=O)c(C#N)ccc34)n2)CN1 (stereo not given) + Cc1nc(NC(=O)N2CCCC2C(N)=O)sc1-c1ccnc(C(C)(C)C(F)(F)F)c1 please.
Response: criterion met

Request: Same question for C#Cc1c(F)ccc2cc(O)cc(-c3ncc4c(N5CC6CCC(C5)N6)nc(OCC56CCCN5CC(F)C6)nc4c3F)c12 (stereo not given) + CC(Nc1ccc2c(c1)OCCn1cc(N3C(=O)OCC3C(F)F)nc1-2)C(N)=O please.
Response: criterion not met
